assay: Solubility in DMSO and 10% DMSO in PBS buffer; assay type: physicochemical; conditions: 10% DMSO in PBS buffer, 1 mM; symbols not defined
assay_readout: Solubility, 10% DMSO, 1 mM

compound	recorded_measurement
CC1NC(NCCCCCCNS(=O)(=O)c2c(Cl)ccc3ccccc23)=Nc2ccccc21 (stereo not shown)	+ + +
O=S(=O)(NCCCCCCNc1ncc2ccccc2n1)c1cccc2ccccc12	+ + -
O=S1(=O)c2cccc3cccc(c23)N1CCCCCCNC1=Nc2ccccc2CN1	+ + +
CC1NC(NCCCCCCNS(=O)(=O)c2cccc3ccccc23)=Nc2ccccc21 (stereo not shown)	+ + +
